System: A2780
Assay: Antitumor activity against human A2780 cells co-cultured with mesothelial cell monolayers using D-luciferin as substrate at 10 uM by firefly luciferase reporter gene assay relative to control
Assay type: functional
test.readout: Ratio

structure_as_smiles=CC(C)(C(=O)NC1CCCCC1)c1ccc(S(=O)(=O)/C=C/C#N)cc1 measurement_target=A2780 reported_measurement=0.2
structure_as_smiles=CC(C)(C(=O)Nc1ccccc1)c1ccc(S(=O)(=O)/C=C/C#N)cc1 measurement_target=A2780 reported_measurement=0.17
structure_as_smiles=CC(C)(C(=O)O)c1ccc(S(=O)(=O)/C=C/C#N)cc1 measurement_target=A2780 reported_measurement=1.08
structure_as_smiles=CC(C)(C(=O)N1CCOCC1)c1ccc(S(=O)(=O)/C=C/C#N)cc1 measurement_target=A2780 reported_measurement=0.66
structure_as_smiles=CC(C)(C(=O)NCc1ccccn1)c1ccc(S(=O)(=O)/C=C/C#N)cc1 measurement_target=A2780 reported_measurement=0.05
structure_as_smiles=C/C=C/S(=O)(=O)c1ccc(C(C)(C)C)cc1 measurement_target=A2780 reported_measurement=1.15
